tested on: UACC-257 melanoma; assay: NCI-60 one-dose screen, 48 h; details: 10 µM unless noted
About 83,000 compounds went through this panel and 20% of them were active in at least one assay; those are over-represented in the sample as a whole. The source made the active and inactive calls. Rule for the calls: active = growth percent below 10; inactive = the rest.
Outcome codes: yes (1) (active), no (0) (inactive)

MOLECULE | MEASUREMENT TARGET | ANSWER LABEL
CN(C)c1ccc(-c2cc(-c3c[nH]c4ccccc34)nc(N)c2C#N)cc1 | UACC-257 melanoma | no (0)
O=C1/C(=C/c2cc(F)cc(F)c2)Cc2cc3c(cc21)OCO3 | UACC-257 melanoma | no (0)
COC(=O)c1ccc(NC2=C(Cl)C(=O)c3nc(C)ccc3C2=O)cc1 | UACC-257 melanoma | no (0)
CCC(=C(c1ccc(OCCN(C)C)cc1)c1ccc(OCCN(C)C)cc1)c1ccc(Cl)cc1 | UACC-257 melanoma | yes (1)
NC(=S)n1c(=O)n(-c2cccc(C(F)(F)F)c2)c(=O)c2cc(-c3ccc(F)cc3F)ccc21 | UACC-257 melanoma | yes (1)
Cc1ccc(NC2=C(Cl)C(=O)c3nc(C)ccc3C2=O)c(C)c1 | UACC-257 melanoma | yes (1)
C#Cc1cc(C(=O)Nc2ccc(CNCCN3CCOCC3)c(C(F)(F)F)c2)ccc1C | UACC-257 melanoma | no (0)
CC(=O)OC[C@@]12Oc3c(cccc3-c3ccc(O)c4c3O[C@]3(COC(C)=O)C(=C4O)C(=O)C[C@H](C)[C@@H]3OC(C)=O)C(O)=C1C(=O)C[C@H](C)[C@@H]2OC(C)=O | UACC-257 melanoma | yes (1)
COC(=O)[C@@H](Cc1c[nH]c2ccccc12)NC(=O)CCCCOc1cc(O)c2c(=O)cc(-c3ccccc3)oc2c1 | UACC-257 melanoma | no (0)
Cc1csc(/N=C(N)/N=C(\N)c2cccc(C#N)c2)n1 | UACC-257 melanoma | no (0)
Cc1ccc(/C=N/Nc2nc(Nc3ccccc3)nc(Nc3ccc(S(N)(=O)=O)cc3)n2)cc1 | UACC-257 melanoma | no (0)
Cc1[nH]c(C(=O)Nc2ccccc2OCc2cccc(C(=O)NC3CCNC3)c2)c(Cl)c1Cl (configuration not stated) | UACC-257 melanoma | no (0)
CCS(=O)(=O)Nc1ccc(C(=O)CC2(O)C(=O)Nc3ccccc32)cc1 (configuration not stated) | UACC-257 melanoma | no (0)
O=C(O)c1ccc(-n2c(=O)n(-c3cccc(C(F)(F)F)c3)c(=O)c3cc(-c4ccc(F)cc4F)ccc32)cc1 | UACC-257 melanoma | yes (1)
Cc1ncn(-c2ccc(/C=N/Nc3ccnc4cc(Cl)ccc34)cc2)c1C | UACC-257 melanoma | yes (1)
O=C(CSc1nnc(-c2ccc(Cl)cc2)n1-c1ccccc1)Nc1ccccc1Cl | UACC-257 melanoma | no (0)
O=C(CCCCCCNC(=O)C(O)(O)C(F)(F)F)Nc1ncc(-c2ccc(Br)cc2)s1 | UACC-257 melanoma | yes (1)
COc1ccc(-c2cnc(NC(=O)CCCCCCNC(=O)C(O)(O)C(F)(F)F)s2)cc1 | UACC-257 melanoma | no (0)
Cc1ccc2c(n1)C(=O)C(Cl)=C(Nc1cccc(C(F)(F)F)c1)C2=O | UACC-257 melanoma | yes (1)
CCCCCCN1C=C/C(=C\C(=O)n2ccc3ccccc32)c2ccccc21 | UACC-257 melanoma | no (0)
CCCCCCOC(=O)c1cc(-c2ccc(F)cc2)nc2ccccc12 | UACC-257 melanoma | no (0)
CC(=C(c1ccc(OCCN(C)C)cc1)c1ccc(OCCN(C)C)cc1)c1ccc(Cl)cc1 | UACC-257 melanoma | yes (1)
O=C(CCl)Nc1ccc(NC(=O)c2cc(Cl)ccc2O)c(Cl)c1 | UACC-257 melanoma | no (0)
O=C(CSc1nc2ccccc2c(=O)n1-c1ccc(Cl)cc1)N/N=C/c1ccc(Oc2ccc(Cl)cc2)cc1 | UACC-257 melanoma | no (0)
CCOC(=O)c1c(NCC(=O)Nc2cccc([N+](=O)[O-])c2)sc(C(C)=O)c1C | UACC-257 melanoma | yes (1)
CSc1ccc(C(=NNS(=O)(=O)c2ccc(C)cc2)c2ccc(Cl)cc2)cc1 | UACC-257 melanoma | no (0)
CC(C)C(/C=C/c1[nH]ncc1-c1cc(Cl)ccc1O)N1CCOCC1 (configuration not stated) | UACC-257 melanoma | no (0)
CC(O)c1cccc(/C(N)=N/C(N)=N/c2nc3ccccc3s2)c1 (configuration not stated) | UACC-257 melanoma | no (0)
CN1CCN(Cc2ccc(NC(=O)c3cncc(C#Cc4cnc5ccc(N6CCOCC6)nn45)c3)cc2C(F)(F)F)CC1 | UACC-257 melanoma | yes (1)
COC(=O)c1ccc(NC2=C(Cl)C(=O)C(C)=C(C)C2=O)cc1 | UACC-257 melanoma | no (0)
C#Cc1nc(C(=O)NCCCCCCC(=O)NO)cs1 | UACC-257 melanoma | no (0)
COc1ccc(/C=N\NC(=O)c2cnn(CC(O)c3ccccc3)c2N)cc1OCc1ccc(Cl)cc1 (configuration not stated) | UACC-257 melanoma | no (0)
CCCCN1C(=O)/C(=c2\sc3n(c2=O)C2C(NN=3)N(CC)C(=O)N2CC)c2cc(C)ccc21 (configuration not stated) | UACC-257 melanoma | no (0)
Cc1cc(Br)ccc1-n1cc(C#N)c(N)c1C(=O)c1ccc(Br)cc1 | UACC-257 melanoma | no (0)
CC1=C(C)C(=O)C(Nc2cccc(C(=O)OC(C)(C)C)c2)=C(Cl)C1=O | UACC-257 melanoma | no (0)
CC(C)(O)c1cncc(-c2ccc3ncc(C#N)c(N4CCc5cc(F)c(Cl)cc54)c3c2)c1 | UACC-257 melanoma | no (0)
CC(=O)N(O)CCCCCNC(=O)CCC(=O)N(O)CCCCCNC(=O)CCC(=O)N(O)CCCCCN(CCCCCCCCCC[P+](c1ccccc1)(c1ccccc1)c1ccccc1)CCCCCCCCCC[P+](c1ccccc1)(c1ccccc1)c1ccccc1 | UACC-257 melanoma | yes (1)

----------
# growth listing for each entry below
tested on: HT29 colon; assay: NCI-60 one-dose screen, 48 h (100 = growth as untreated, 0 = no growth, -100 = all killed); settings: 10 µM unless noted
The panel holds about 83,000 compounds, 20% with a hit somewhere; the sample as a whole holds those more often.

MOLECULE | MEASUREMENT TARGET | OUTPUT UNIT | growth
CN1CC[C@@H]2[C@@]3(C)CC[C@H](O)C(C)(C)[C@@H]3CC[C@@]2(C)[C@]2(C)CC[C@@]3(CO)CCC(C)(C)C[C@@H]3C12 (stereo partly drawn) | HT29 colon | % | 40.3
COc1ccc(/C=N/NC(=O)c2c(N)nn(C)c2Nc2ccccc2)cc1Oc1ccccc1 | HT29 colon | % | 110
NC1CC2(CCN(c3cnc(C(=O)Nc4cc(F)cc5cccnc45)cn3)CC2)C1 | HT29 colon | % | 5.06
CN1CCN(CCNc2nc(-c3cccc(NS(=O)(=O)c4cccc5c(N(C)C)cccc45)c3)cs2)CC1 | HT29 colon | % | 71.6
COc1ccc(C(C)=C(c2ccc(OCCN(C)C)cc2)c2ccc(OCCN(C)C)cc2)cc1 | HT29 colon | % | -53.5
CN(C)c1ccc(/C=N/Nc2nc(N/N=C/c3ccc(N(C)C)cc3)nc(N3CCCCC3)n2)cc1 | HT29 colon | % | -4.67
Cc1ccc(CSC2=C(Cl)CN(c3ccc(Cl)cc3)C2=O)cc1 | HT29 colon | % | 116
CNCCN(C)c1ccc(Nc2cc(NC3CC3)n3ncc(C#N)c3n2)cc1NC(C)=O | HT29 colon | % | 16.4
COc1cc2c3c(cc4c5c(ccc4c3c1OC)OCO5)N(CCN(C)C)C2=O | HT29 colon | % | -9.31
O=C1Nc2cc(Cl)ccc2/C1=C\c1ccc(OCc2ccccc2)cc1 | HT29 colon | % | 105
C/C(CC1(O)C(=O)Nc2ccccc21)=N\O (stereo not drawn) | HT29 colon | % | 104
C(=N\Nc1nc(N/N=C/c2ccc3c(c2)OCO3)nc(N2CCCCC2)n1)/c1ccc2c(c1)OCO2 | HT29 colon | % | 38.2
CS(=O)(=O)c1ccc(/C(=N/N=C(N)N)c2ccc(F)cc2)cc1 | HT29 colon | % | 91.5
CC(C)(C)Nc1nc2c(OCCc3ccccc3)cccn2c1-c1cccc(Oc2ccccc2)c1 | HT29 colon | % | 6.41
O=C(CSc1nc2ccccc2c(=O)n1-c1ccc(Cl)cc1)N/N=C/c1ccc(Oc2ccc(Cl)cc2)cc1 | HT29 colon | % | 1.76
O=C(COc1ccc(/C=C2\C(=O)Nc3ccc(Cl)cc32)cc1)Nc1ccc(Cl)cc1 | HT29 colon | % | 55.8
CCOC(=O)C1=C(C)NC(C)=C(C(=O)OC(C)C)C1c1cccc(C#N)c1 (stereo not drawn) | HT29 colon | % | 108
COc1ccc(/C=N/NC(=O)CSc2nc(-c3cnccn3)cc(-c3cccs3)c2C#N)cc1 | HT29 colon | % | 8.86
O=C(CCCCCCNC(=O)c1csc(Br)n1)NO | HT29 colon | % | 17.2
COc1cc(C(C)=C(c2ccc(OCCN(C)C)cc2)c2ccc(OCCN(C)C)cc2)ccc1F | HT29 colon | % | 108
COc1cccc(N2CCN(C3=C(Cl)C(=O)c4ncccc4C3=O)CC2)c1 | HT29 colon | % | 108
CC1(C)CC[C@]2(C(=O)O)CC[C@]3(C)C(=CC[C@@H]4[C@@]5(C)CC[C@H](NOCCCN)C(C)(C)[C@@H]5CC[C@]43C)[C@@H]2C1 | HT29 colon | % | 74
Cc1cc2nc(C(Cl)Cl)nc(-c3ccc(S(=O)(=O)N(C)C)cc3)n2n1 | HT29 colon | % | 18
CN1CCN(Cc2ccc(NC(=O)c3cncc(C#Cc4cnc5ccc(NCCO)nn45)c3)cc2C(F)(F)F)CC1 | HT29 colon | % | -28
C1=CC(c2nn3c(-c4ccccc4)nnc3s2)=Cc2ccccc2O1 | HT29 colon | % | 82.1
CC1=Cc2ccccc2OC12C=Cc1ccccc1O2 (stereo not drawn) | HT29 colon | % | 98.2
COc1ccc(NC(=O)CCCCCCNC(=O)C(O)(O)C(F)(F)F)cc1 | HT29 colon | % | 23.1
COC(=O)N1CCN(CCNCc2ccc(NC(=O)c3ccc(C)c(C#Cc4cnc5cccnn45)c3)cc2C(F)(F)F)CC1 | HT29 colon | % | 17.3
CCCCSC1=C(Cl)CN(c2ccccc2)C1=O | HT29 colon | % | 114
CCN(CC)CCOc1ccc(C(=C(C)c2ccc(OC)cc2)c2ccc(OCCN(CC)CC)cc2)cc1 | HT29 colon | % | -28.1
CCNC(=O)Oc1ccc(/C(=C(/C)c2ccc(Cl)cc2)c2ccc(OCCN3CCCCCC3)cc2)cc1 | HT29 colon | % | -48.4
O=C(CCCCCCNC(=O)C(O)(O)C(F)(F)F)Nc1ncc(-c2ccccc2)s1 | HT29 colon | % | 4.15
CC1=C(C)C(=O)C(Nc2ccc3c(c2)OCCO3)=C(Br)C1=O | HT29 colon | % | 108
CC(=O)OC[C@@]12Oc3c(cccc3-c3ccc(O)c4c3O[C@]3(COC(C)=O)C(=C4O)C(=O)C[C@H](C)[C@@H]3OC(C)=O)C(O)=C1C(=O)C[C@H](C)[C@@H]2OC(C)=O | HT29 colon | % | 10.4
N#C/C(=C\c1cccc2c1OCO2)C(=O)Nc1sc2c(c1C#N)CCCC2 | HT29 colon | % | 124
O=C(O)CC1CCN(c2ccc3nnc(Cl)n3n2)CC1 | HT29 colon | % | 101
Cc1nc(/N=C(N)/N=C(\N)c2cccc(Br)c2)sc1C | HT29 colon | % | 17.8
Cn1cc(-c2nc(N)nnc2-c2c[nH]c3ccc(Br)cc23)c2cc(F)ccc21 | HT29 colon | % | 104
